Please go through the items and note down their inhibition.
- measuredOn: Casein kinase I isoform gamma-2 (Homo sapiens) (UniProt P78368)
- Sequence (P78368 whole entry, looked up, canonical isoform): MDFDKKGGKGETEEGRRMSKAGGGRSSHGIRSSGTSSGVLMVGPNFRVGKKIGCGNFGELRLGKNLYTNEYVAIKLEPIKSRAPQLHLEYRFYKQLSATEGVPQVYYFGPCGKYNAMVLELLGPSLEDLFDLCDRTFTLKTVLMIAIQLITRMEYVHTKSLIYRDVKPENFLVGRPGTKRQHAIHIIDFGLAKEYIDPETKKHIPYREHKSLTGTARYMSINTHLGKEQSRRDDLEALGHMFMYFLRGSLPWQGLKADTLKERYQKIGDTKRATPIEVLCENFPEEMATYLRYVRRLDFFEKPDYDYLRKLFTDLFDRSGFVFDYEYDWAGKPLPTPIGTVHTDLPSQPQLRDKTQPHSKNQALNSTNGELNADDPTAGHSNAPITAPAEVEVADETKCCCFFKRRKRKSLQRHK
- condition: at 1 µM
- Description: GSK_PKIS: CK1-g2 mean inhibition at 1 uM [Nanosyn]
Answer format: number, then unit.

Value of measured inhibition for the entry `CS(=O)(=O)CCNCc1ccc(-c2ccc3ncnc(Nc4ccc(OCc5cccc(F)c5)c(C(F)(F)F)c4)c3c2)o1` : 3.77%

Value of measured inhibition for the entry `Cc1nnc(-c2ccc(C)c(-c3ccc(C(=O)Nc4cccc(C#N)c4)cc3)c2)o1` : 1.54%

Value of measured inhibition for the entry `CC(=O)Nc1cccc(C#Cc2cncnc2Nc2ccc(OCc3cccc(F)c3)c(Cl)c2)n1` : -2.14%

Value of measured inhibition for the entry `COc1cc2ncn(-c3cc(OCc4ccccc4C(F)(F)F)c(C(N)=O)s3)c2cc1OC` : 1.15%

Value of measured inhibition for the entry CC1=C(C(=O)Nc2ccc3[nH]ncc3c2)C(c2ccc3ccccc3c2)CC(=O)N1 (stereo not given) : 1.9%
